assayed.target: Norovirus surrogate virus-like particle, type GII.4 Minerva strain (human Norovirus GII.4 Minerva strain)
test.description: SPR, unpurified peptide against nVLP GII.4
observation.type: % Stability (%)
Report only the number, with the unit % understood.

Use the examples below as a reference point.
>  <binder>
RWHRVKLRSHTELNRYIGSC [Mut Peptide-92]

>  <observation.type>
% Stability

>  <measured>
57

$$$$
>  <binder>
RWVRVKLRSHTKLNRYIGSC [Mut Peptide-94]

>  <observation.type>
% Stability

>  <measured>
63

$$$$
>  <binder>
SWARSNNKRSKAFNLGWGSC [Mut Peptide-78]

>  <observation.type>
% Stability

>  <measured>
46

$$$$
>  <binder>
DWARKNNKRKMNFNLGWGSC [Mut Peptide-60]

>  <observation.type>
% Stability

>  <measured>
44

$$$$
>  <binder>
RWVRVKLRSHTELNRYIGSC [Mut Peptide-93]

>  <observation.type>
% Stability

>  <measured>
60

$$$$

Q) Give the measured % Stability for VWARKNNKRKKDFNAGWGSC [Mut Peptide-53]
A) 51

Q) Quickly give me recorded % Stability for AWARSNNSRSKAFNLGWGSC [Mut Peptide-81]
A) 45
